Tested on: HaCat
test_name: Cytotoxic Profiling of Annotated Libraries Using Quantitative High-Throughput Screening (AID 1296008); note: nearly all actives have a fitted effect of over 60% in size
recorded_conditions: Five cell lines viability, CellTiter-Glo ATP luminescence, 48-72 h
Inconclusive results are not listed. The source made the active and inactive calls. Calls come from the whole dose curve; as a rule, active = well fitted inhibition curve with a large enough effect; inconclusive = small, poorly fitted or top-dose-only effect; inactive = flat fitted curve, though single readings scatter.
Permitted responses: class 1 (active), class 0 (inactive)

compound	target_or_system	category_label
NCCCCCNC1(c2ccccc2)CCCCC1	HaCat	class 0
C[C@]12CC[C@@H](O[C@@H]3O[C@H](CO)[C@@H](O)[C@H](O)[C@H]3O)C[C@@]1(O)CCC1C2CC[C@]2(C)[C@@H](C3=CC(=O)OC3)CC[C@]12O (stereo partly specified)	HaCat	class 1
C[C@@]1(CO)[C@H](O)CC[C@@]2(C)[C@H]1CC[C@H]1C[C@@H]3C[C@@]12CC[C@]3(O)CO	HaCat	class 1
C[C@]12CC[C@H](O)C[C@H]1CC[C@@H]1[C@@H]2[C@H](O)C(=O)[C@]2(C)[C@@H](c3ccc(=O)oc3)CC[C@]12O	HaCat	class 1
CC[C@@H]1C[C@H]2CC[C@H](O2)[C@H](C)C(=O)O[C@@H](C)C[C@@H]2CC[C@@H](O2)[C@@H](C)C(=O)O[C@H](C)C[C@H]2CC[C@H](O2)[C@H](C)C(=O)O[C@@H](C)C[C@@H]2CC[C@@H](O2)[C@@H](C)C(=O)O1	HaCat	class 1

Ask | # fetch the recorded call for CCC(C)(O)C1(C(=O)O)COC(=O)C1 (stereo unspecified) here
Reply | class 0

Ask | Please let me know the test result on file for CN1CCCCC1Cn1cc(C(=O)c2cc([N+](=O)[O-])ccc2I)c2ccccc21 (stereo unspecified) .
Reply | class 0

Ask | What classification did "O=S(=O)(c1ccccc1F)N1CCOc2c(N3CCNCC3)cccc21" end up with in this test?
Reply | class 0

Ask | Write down the call the test reported for this compound. Item: C[C@@H]1C[C@@H](O)[C@]2(O)O[C@@H]3C[C@@]4(C=O)C(CC[C@@H]5C4CC[C@]4(C)[C@@](O)(C6=CC(=O)OC6)CC[C@]54O)C[C@H]3OC2O1 (stereo partly specified)
Reply | class 1
